# assayedTarget: cynomolgous IL12Rβ1 naturally expressed on cells (HSC-F cells, cyno T-cells, cyno blood cells) (cynomolgus monkey, UniProt P42701 24-662 (human entry))
# assayRemarks: cell-based or functional assay
observationType: IL12/IL18 dependent IFNγ production In cyno blood cells (IC50, pM)
Reply numerically in pM, unit not repeated.

Past entries and their recorded results:
{"columns": ["binder", "measurementUnit", "measurement"],
 "data": [
  ["mAb7 (MOR11879 with IgG1 LALA Fc variant) (antibody, V domains shown, Human IgG1 L234A L235A (LALA), expressed in HKB11 cells) VH: QVQLVQSGAEVKKPGASVKVSCKASGYTFTGYYMHWVRQAPGQGLEWMGMIGPQHGEAIYAQKFQGRVTMTRDTSISTAYMELSRLRSEDTAVYYCARESTDSDESPFDYWGQGTLVTVSS VL: DIELTQPPSVSVSPGQTASITCSGDNIRSYYVSWYQQKPGQAPVLVIYDDSDRPSGIPERFSGSNSGNTATLTISGTQAEDEADYYCQSYGSHSNFVVFGGGTKLTVLG", "pM", 284],
  ["mAb1 (MOR11873 with IgG1 LALA Fc variant) (antibody, V domains shown, Human IgG1 L234A L235A (LALA), expressed in HKB11 cells) VH: QVQLVESGGGVVQPGRSLRLSCAASGFTFTSYGMSWVRQAPGKGLEWVAGISYSGSDTEYADSVKGRFTISRDNSKNTLYLQMNSLRAEDTAVYYCARSPDYIIDYGFDYWGRGTLVTVSS VL: AIQMTQSPSSLSASVGDRVTITCRASQGISSDLAWYQQKPGKAPKLLIYDASSLQSGVPSRFSGSGSGTDFTLTISSLQPEDFATYYCQQYWIYPFTFGQGTKVEIKR", "pM", 239],
  ["mAb4 (MOR11878 with IgG1 LALA Fc variant) (antibody, V domains shown, Human IgG1 L234A L235A (LALA), expressed in HKB11 cells) VH: QVQLVESGGGVVQPGRSLRLSCAASGFTFTSYGMSWVRQAPGKGLEWVAGISYDASDTEYADSVKGRFTISRDNSKNTLYLQMNSLRAEDTAVYYCARSPDYIIDYGFDYWGRGTLVTVSS VL: AIQMTQSPSSLSASVGDRVTITCRASQGISSDLAWYQQKPGKAPKLLIYDASSLQSGVPSRFSGSGSGTDFTLTISSLQPEDFATYYCQQYWWYPFTFGQGTKVEIKR", "pM", 216]
]}

The record that follows has no IL12/IL18 dependent IFNγ production In cyno blood cells (IC50, pM) shown yet.
State the recorded IL12/IL18 dependent IFNγ production In cyno blood cells (IC50, pM) for this entry: mAb10 (MOR11880 with IgG1 LALA Fc variant) (antibody, V domains shown, Human IgG1 L234A L235A (LALA), expressed in HKB11 cells) VH: QVQLVQSGAEVKKPGASVKVSCKASGYTFTGYYMHWVRQAPGQGLEWMGMIGPQHGEAIYAQKFQGRVTMTRDTSISTAYMELSRLRSDDTAVYYCARESTDSDESPFDYWGQGTLVTVSS VL: SYELTQPLSVSVALGQTARITCSGDNIRSYYVSWYQQKPGQAPVLVIYDDSDRPSGIPERFSGSNSGNTATLTISRAQAGDEADYYCQSYGSHSNFVVFGGGTKLTVLG 1180
